- method: TAMU_PeakParms_SingleDonor1434_Chronotropy: Texas A&M University (TAMU) 1.5-hr Human Induced Pluripotent Stem Cell (iPSC)-derived Cardiomyocytes Calcium (Ca+2) Flux Assay for Cardiotoxicity: Chronotropy (changes in peak frequency) (AID 2284217)
- measurement setup: actives raise or lower the signal
Calls of active or inactive are those of the source. Rule for the calls: active = hit-call score of the fitted dose curve at least 0.9, where 1 is the maximum; inactive = score below 0.9.
Labels: label 1 for active, label 0 for inactive

>  <item smiles>
c1ccc2cc3c(ccc4ccccc43)cc2c1

>  <assigned class>
label 0

$$$$
>  <item smiles>
c1ccc2c(c1)Cc1ccccc1-2

>  <assigned class>
label 1

$$$$
>  <item smiles>
CC#C[C@]1(O)CC[C@H]2[C@@H]3CCC4=CC(=O)CCC4=C3[C@@H](c3ccc(N(C)C)cc3)C[C@@]21C

>  <assigned class>
label 1

$$$$
>  <item smiles>
c1ccc2c(c1)ccc1ccccc12

>  <assigned class>
label 0

$$$$

###

- Read-out: Cytochrome P450 (CYP24A1), CYP24A1 (gene 1591)
- method: LTEA_HepaRG_CYP24A1: Life Technologies and Expression Analysis (LTEA) Assay for Cytochrome P450 (CYP24A1) using HepaRG (AID 2283478)
- measurement setup: mRNA level, 48 h; actives raise or lower the signal
Calls of active or inactive are those of the source. How the source made its calls: active means hit-call score of the fitted dose curve at least 0.9, where 1 is the maximum; inactive means score below 0.9.
Labels: active, inactive

>  <item smiles>
COc1ccc([N+](=O)[O-])cc1N

>  <assigned class>
inactive

$$$$
>  <item smiles>
CC(C)(C)c1cccc(C(C)(C)C)c1O

>  <assigned class>
inactive

$$$$
>  <item smiles>
O=c1c(-c2ccc(O)cc2)coc2cc(O)ccc12

>  <assigned class>
inactive

$$$$
>  <item smiles>
C=C(C)C(=O)OCCC(F)(F)C(F)(F)C(F)(F)C(F)(F)C(F)(F)C(F)(F)F

>  <assigned class>
inactive

$$$$
>  <item smiles>
CN1CCN(c2ccccc2/C=C2\SCCN(c3ccc(Cl)c(Cl)c3)C2=O)CC1

>  <assigned class>
inactive

$$$$
>  <item smiles>
CC(C)(C)c1ccc(O)c(C(C)(C)C)c1

>  <assigned class>
active

$$$$
>  <item smiles>
COC(=O)CCCCC(=O)OC

>  <assigned class>
inactive

$$$$

###

- method: CCTE_Padilla_ZF_Score.Living: CCTE's 144 Hour Post-fertilization zebrafish Assay Score for Viability, Padilla Lab (AID 2284410);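 note: larval death at 6 dpf judged by absent heartbeat or coagulation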
Calls of active or inactive are those of the source. The calls were made as follows: active = hit-call score of the fitted dose curve at least 0.9, where 1 is the maximum; inactive = score below 0.9.
Labels: active, inactive

>  <item smiles>
OCCC(F)(F)C(F)(F)C(F)(F)C(F)(F)C(F)(F)C(F)(F)C(F)(F)C(F)(F)F

>  <assigned class>
active

$$$$
>  <item smiles>
OCCC(F)(F)C(F)(F)C(F)(F)C(F)(F)C(F)(F)C(F)(F)F

>  <assigned class>
inactive

$$$$
>  <item smiles>
C=C(C)C(=O)OCCC(F)(F)C(F)(F)C(F)(F)C(F)(F)C(F)(F)C(F)(F)F

>  <assigned class>
inactive

$$$$
>  <item smiles>
NCC(F)(F)C(F)(F)C(F)(F)C(F)(F)C(F)(F)C(F)(F)C(F)(F)F

>  <assigned class>
inactive

$$$$

###

- Read-out: Pyruvate Dehydrogenase Kinase 4 (PDK4), PDK4 (gene 5166)
- method: LTEA_HepaRG_PDK4: Life Technologies and Expression Analysis (LTEA) Assay for Pyruvate Dehydrogenase Kinase 4 (PDK4) using HepaRG (AID 2283525)
- measurement setup: mRNA level, 48 h; actives raise or lower the signal
Activity calls are given as the source filed them. Rule for the calls: active = hit-call score of the fitted dose curve at least 0.9, where 1 is the maximum; inactive = score below 0.9.
Labels: active, inactive

>  <molecule>
Oc1cccc(O)c1

>  <assigned class>
inactive

$$$$
>  <molecule>
CC(C)(C)c1cccc(C(C)(C)C)c1O

>  <assigned class>
inactive

$$$$
>  <molecule>
O=c1c(-c2ccc(O)cc2)coc2cc(O)ccc12

>  <assigned class>
inactive

$$$$
>  <molecule>
CCCCCCCCC(=O)O

>  <assigned class>
inactive

$$$$
>  <molecule>
CCCOC(=O)c1ccc(O)cc1

>  <assigned class>
inactive

$$$$
>  <molecule>
O=[N+]([O-])c1ccc(O)cc1

>  <assigned class>
inactive

$$$$
>  <molecule>
COCC(C)OCC(C)O (stereo not drawn)

>  <assigned class>
inactive

$$$$
>  <molecule>
c1ccc2cc3c(ccc4ccccc43)cc2c1

>  <assigned class>
active

$$$$
>  <molecule>
c1ccc2c(c1)ccc1ccccc12

>  <assigned class>
inactive

$$$$
>  <molecule>
CC(=O)CC(C)(C)O

>  <assigned class>
inactive

$$$$
>  <molecule>
CC(C)(C)CC(C)(C)c1ccc(O)c(-n2nc3ccccc3n2)c1

>  <assigned class>
inactive

$$$$
>  <molecule>
CCCCCCCCCCCCN1CCCC1=O

>  <assigned class>
inactive

$$$$
>  <molecule>
CCCCCCCC(=O)O

>  <assigned class>
inactive

$$$$
>  <molecule>
CC[C@H](c1ccc(O)cc1)[C@@H](CC)c1ccc(O)cc1

>  <assigned class>
active

$$$$
>  <molecule>
Cc1cc(C)c(O)c(C)c1

>  <assigned class>
inactive

$$$$
>  <molecule>
NC(=O)N1C(=O)C(C(=O)c2cc(Cl)cs2)c2cc(F)c(Cl)cc21 (stereo not drawn)

>  <assigned class>
active

$$$$
>  <molecule>
OC1CCCCC1

>  <assigned class>
inactive

$$$$
>  <molecule>
CCCCCCCCCCCCCCCS(=O)(=O)Oc1ccccc1

>  <assigned class>
inactive

$$$$
>  <molecule>
CCCCC(CC)COC(=O)CCCCC(=O)OCc1ccccc1 (stereo not drawn)

>  <assigned class>
inactive

$$$$
>  <molecule>
Nc1cccc2c(N)cccc12

>  <assigned class>
inactive

$$$$
>  <molecule>
COc1ccc([N+](=O)[O-])cc1N

>  <assigned class>
inactive

$$$$
>  <molecule>
CC(=O)NC1(c2cccc(F)c2)CCN(CC[C@@]2(c3ccc(Cl)c(Cl)c3)CN(c3ccccc3)C(=O)CO2)CC1

>  <assigned class>
inactive

$$$$
>  <molecule>
CCc1nn(C2CCCCC2)c2cc(C3(C#N)CCC(C(=O)O)CC3)ccc12 (stereo not drawn)

>  <assigned class>
active

$$$$
>  <molecule>
OCCC(F)(F)C(F)(F)C(F)(F)C(F)(F)C(F)(F)C(F)(F)C(F)(F)C(F)(F)F

>  <assigned class>
inactive

$$$$
>  <molecule>
ClC1=C(Cl)C(Cl)(Cl)C(Cl)=C1Cl

>  <assigned class>
inactive

$$$$
>  <molecule>
O=C(OCCOCCOC(=O)c1ccccc1)c1ccccc1

>  <assigned class>
inactive

$$$$
>  <molecule>
N#C[C@@H]1CC(F)(F)CN1C(=O)CNC1CC2CCC(C1)N2c1ncccn1 (stereo partly drawn)

>  <assigned class>
inactive

$$$$
>  <molecule>
CCOC(=O)CC(O)(CC(=O)OCC)C(=O)OCC

>  <assigned class>
inactive

$$$$

###

- Read-out: CD69, CD69 (gene 969)
- method: BSK_SAg_CD69: BioMAP Diversity Plus: SAg Assay for CD69 Biomarker Activity (AID 2283089)
- measurement setup: primary human HUVEC with PBMC; actives raise or lower the signal
Calls of active or inactive are those of the source. How the source made its calls: active means hit-call score of the fitted dose curve at least 0.9, where 1 is the maximum; inactive means score below 0.9.
Labels: True for active, False for inactive

>  <compound>
CCCCC(CC)COC(=O)CCCCC(=O)OCC(CC)CCCC (configuration not stated)

>  <assigned class>
False

$$$$
>  <compound>
c1ccc2c(c1)ccc1ccccc12

>  <assigned class>
False

$$$$
>  <compound>
CCOC(=O)CC(O)(CC(=O)OCC)C(=O)OCC

>  <assigned class>
False

$$$$
>  <compound>
NC(=O)N1C(=O)C(C(=O)c2cc(Cl)cs2)c2cc(F)c(Cl)cc21 (configuration not stated)

>  <assigned class>
True

$$$$
>  <compound>
O=c1c(-c2ccc(O)cc2)coc2cc(O)ccc12

>  <assigned class>
False

$$$$
>  <compound>
CCCCCCCC(=O)O

>  <assigned class>
False

$$$$
>  <compound>
CCCCC(CC)COC(=O)CCCCC(=O)OCc1ccccc1 (configuration not stated)

>  <assigned class>
False

$$$$

###

- Test system: frog Estrogen Receptor (ER), gene 398734
- method: ATG_frER1_XSP2: Attagene TRANS-FACTORIAL Multi-Species (XSP2) HepG2 Assay for frog Estrogen Receptor (ER) (AID 2283821);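 note: hits raise reporter mRNA above DMSO baseline so potency means agonist or activator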
Inconclusive results are not listed. Active and inactive are the calls of the source. The calls were made as follows: active = hit-call score of the fitted dose curve at least 0.9, where 1 is the maximum; inconclusive = response in the unintended direction; inactive = score below 0.9.
Labels: label 1 for active, label 0 for inactive

>  <molecule>
O=C(O)Cc1cc(I)c(Oc2cc(I)c(O)c(I)c2)c(I)c1

>  <assigned class>
label 0

$$$$
>  <molecule>
CCC(C)(C)C1CCC(O)CC1 (centres undefined)

>  <assigned class>
label 0

$$$$
>  <molecule>
CC[C@H](c1ccc(O)cc1)[C@@H](CC)c1ccc(O)cc1

>  <assigned class>
label 1

$$$$
>  <molecule>
c1ccc2c(c1)ccc1ccccc12

>  <assigned class>
label 0

$$$$

###

- Read-out: Intercellular Adhesion Molecule 1 (ICAM1), ICAM1 (gene 3383)
- method: BSK_3C_ICAM1: BioMAP Diversity Plus: 3C Assay for Intercellular Adhesion Molecule 1 (ICAM1) Biomarker Activity (AID 2283003)
- measurement setup: primary human endothelial cells (HUVEC); actives raise or lower the signal
Calls of active or inactive are those of the source. Rule for the calls: active = hit-call score of the fitted dose curve at least 0.9, where 1 is the maximum; inactive = score below 0.9.

>  <molecule>
COC(=O)CCCCC(=O)OC

>  <AC50>
inactive

$$$$
>  <molecule>
CCc1ccc(CCOc2ccc(CC3SC(=O)NC3=O)cc2)nc1 (stereo not drawn)

>  <AC50>
inactive

$$$$
>  <molecule>
CCC(C)(C)C1CCC(O)CC1 (stereo not drawn)

>  <AC50>
inactive

$$$$
>  <molecule>
CCCCCCCC(=O)O

>  <AC50>
inactive

$$$$
>  <molecule>
C=C(C)C(=O)OCCC(F)(F)C(F)(F)C(F)(F)C(F)(F)C(F)(F)C(F)(F)F

>  <AC50>
inactive

$$$$
>  <molecule>
CC(C)(C)CC(C)(C)c1ccc(O)c(-n2nc3ccccc3n2)c1

>  <AC50>
inactive

$$$$
>  <molecule>
CC[C@H](c1ccc(O)cc1)[C@@H](CC)c1ccc(O)cc1

>  <AC50>
36.4 µM (active)

$$$$
>  <molecule>
COCC(C)OCC(C)O (stereo not drawn)

>  <AC50>
inactive

$$$$
>  <molecule>
NCC(F)(F)C(F)(F)C(F)(F)C(F)(F)C(F)(F)C(F)(F)C(F)(F)F

>  <AC50>
inactive

$$$$
>  <molecule>
CC(C)(C)c1ccc(O)c(C(C)(C)C)c1

>  <AC50>
15.1 µM (active)

$$$$
>  <molecule>
CN(C)C=O

>  <AC50>
inactive

$$$$
>  <molecule>
CCCCCCCCCCCCCCCS(=O)(=O)Oc1ccccc1

>  <AC50>
inactive

$$$$
>  <molecule>
CCCOC(=O)c1ccc(O)cc1

>  <AC50>
inactive

$$$$
